# maps each entry to its pIC50
experiment: Inhibition of farnesyltransferase
Give only the figure.

# example entries with known answers
molecule	pIC50
N#Cc1ccc(Cn2cncc2CNC2CCN(C(=O)c3cccc4ccccc34)C2=O)cc1 (centres undefined)	7.96
CN1CCN(c2nc(COC(c3ccc(C#N)c(-c4ccccc4C(F)(F)F)c3)c3cncn3C)ccc2C#N)CC1 (centres undefined)	8.92

## Input Respond only with pIC50 recorded for Cn1cncc1C(OCc1ccc(C#N)c(N2CCN(CCO)CC2)n1)c1ccc(C#N)c(-c2ccccc2C(F)(F)F)c1 (centres undefined)
## Output 8.88

## Input Respond only with pIC50 recorded for "N#Cc1ccc(Cn2cncc2CCN[C@H]2CCN(c3ccccc3)C2=O)cc1"
## Output 6.55

## Input Respond only with pIC50 recorded for Cn1cncc1C(OCc1ccc(Cl)c(Cl)c1)c1ccc(C#N)c(-c2ccccc2C(F)(F)F)c1 (centres undefined)
## Output 8.76

## Input Respond only with pIC50 recorded for N#Cc1ccc(Cn2cncc2CN(CCCN)C2CCN(Cc3cccc(Cl)c3)C2=O)cc1 (centres undefined)
## Output 8.12

## Input Respond only with pIC50 recorded for N#Cc1ccc(Cn2cncc2CNC2CCN(c3ccncc3)C2=O)cc1 (centres undefined)
## Output 7.37

## Input Respond only with pIC50 recorded for Cc1ccccc1-c1cc(C(OCc2ccc(C(C)(C)C)cc2)c2cncn2C)ccc1C#N (centres undefined)
## Output 7.06

## Input Respond only with pIC50 recorded for "N#Cc1ccc(Cn2cncc2CN[C@H]2CCN(CCc3ccccc3)C2=O)cc1"
## Output 6.63
